From: the RNAGym collection of RNA variant scans (doi:10.1021/acssynbio.7b00057)

Documented aptazyme ON/OFF ratio across a set of variants
B1: Pistol ribozyme (parent)
chain: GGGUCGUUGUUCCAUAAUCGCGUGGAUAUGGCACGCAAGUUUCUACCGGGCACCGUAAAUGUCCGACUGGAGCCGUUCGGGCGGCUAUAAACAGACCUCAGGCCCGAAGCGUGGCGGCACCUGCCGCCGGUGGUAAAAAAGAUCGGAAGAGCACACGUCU

Variants of: B1
Method: aptazyme ON/OFF ratio, guanine; higher = stronger switching; co-transcriptional cleavage with and without guanine
I'd appreciate a reply containing only the number, no unit.

Completed entries (count: 3):
U7A G9C U10C U11C C12G C13A ... 1.06
U8G G9U U10C U11A C12U C13U ... 1.08
U7A U8A G9U U11G C12A C13G ... 1.27

Per the record, U7C U8A U10A U11G C12G C13G has aptazyme ON/OFF ratio of 1.13

Per the record, G9A C12U C13U has aptazyme ON/OFF ratio of 1.32
